- SYSTEM UNDER TEST: Cyclin-dependent kinase 1/cyclin B (Homo sapiens)
- METHOD SUMMARY: Inhibitory concentration was determined by measuring phosphorylation of H1 histone using active human Cell division cycle 2-cyclin B complex
Residues, ends and D or L forms follow the SMILES beside them. *: point of attachment. X4 = O=C1NC(=O)C(c2cn(CCOCCOCCOC*)c3ccccc23)=C1c1c[nH]c2ccccc12; X1 = O=C1NC(=O)C(c2cn(CCOCCOCC*)c3ccccc23)=C1c1c[nH]c2ccccc12
READOUT NAME: IC50 (µM)

Below are worked cases with known answers.
COMPOUND: O=C1NC(=O)C(c2c[nH]c3ccccc23)=C1c1c[nH]c2ccccc12
TEST RESULT: 18
//
COMPOUND: CN(C)CCCn1cc(C2=C(c3c[nH]c4ccccc34)C(=O)NC2=O)c2ccccc21
TEST RESULT: 19

P: CN(C)CCCn1cc(C2=C(c3cn(CCOCCO)c4ccccc34)C(=O)NC2=O)c2ccccc21
Q: CNC(=O)[C@H](CCCCN)NC(=O)[C@H](CCCCN)NC(=O)[C@@H]1CCCN1C(=O)[C@H](CO)NC(=O)[C@H](CSCCOCCOCCn1cc(C2=C(c3c[nH]c4ccccc34)C(=O)NC2=O)c2ccccc21)NC(C)=O (Ac-C(X1)SPKK-NHMe)
R: O=C1NC(=O)C(c2cn(CCOCCO)c3ccccc23)=C1c1c[nH]c2ccccc12
S: CNC(=O)[C@H](CCCCN)NC(=O)[C@H](CCCCN)NC(=O)[C@@H]1CCCN1C(=O)[C@H](CO)NC(=O)[C@H](CSCOCCOCCOCCn1cc(C2=C(c3c[nH]c4ccccc34)C(=O)NC2=O)c2ccccc21)NC(C)=O (Ac-C(X4)SPKK-NHMe)
**Query** Put the items in order so that reported IC50 rises from first to last. To answer, write out the labels according to the requested order.
**Result** R, P, Q, S
(R: 4 µM, P: 22 µM, Q: 220 µM, S: 570 µM)

----------
- SYSTEM UNDER TEST: Cyclin-dependent kinase 1/cyclin B (Homo sapiens, UniProt P06493)
- METHOD SUMMARY: Inhibitory concentration was determined by measuring phosphorylation of H1 histone using active human Cell division cycle 2-cyclin B complex
pIC50: −log10 of the molar value. Residues, ends and D or L forms follow the SMILES beside them. *: point of attachment. X1 = O=C1NC(=O)C(c2cn(CCOCCOCC*)c3ccccc23)=C1c1c[nH]c2ccccc12; X2 = O=C1NC(=O)C(c2cn(CCOCC*)c3ccccc23)=C1c1c[nH]c2ccccc12
READOUT NAME: pIC50

COMPOUND: CNC(=O)[C@H](CCCCN)NC(=O)[C@H](CCCCN)NC(=O)[C@@H]1CCCN1C(=O)[C@H](CSCCOCCOCCOCCn1cc(C2=C(c3c[nH]c4ccccc34)C(=O)NC2=O)c2ccccc21)NC(C)=O
SYSTEM UNDER TEST: Cyclin-dependent kinase 1/cyclin B (Homo sapiens, UniProt P06493)
TEST RESULT: 4.51

P: CN(C)CCCn1cc(C2=C(c3cn(CCOCCOCCO)c4ccccc34)C(=O)NC2=O)c2ccccc21
Q: CNC(=O)[C@H](CCCCN)NC(=O)[C@H](CCCCN)NC(=O)[C@@H]1CCCN1C(=O)[C@H](CSCCOCCOCCn1cc(C2=C(c3c[nH]c4ccccc34)C(=O)NC2=O)c2ccccc21)NC(C)=O (Ac-C(X1)PKK-NHMe)
R: O=C1NC(=O)C(c2cn(CCOCCOCCO)c3ccccc23)=C1c1c[nH]c2ccccc12
S: CNC(=O)[C@H](CCCCN)NC(=O)[C@H](CCCCN)NC(=O)[C@@H]1CCCN1C(=O)[C@H](CSCCOCCn1cc(C2=C(c3c[nH]c4ccccc34)C(=O)NC2=O)c2ccccc21)NC(C)=O (Ac-C(X2)PKK-NHMe)
T: O=C1NC(=O)C(c2cn(CCOCCOCCOCCO)c3ccccc23)=C1c1c[nH]c2ccccc12
**Query** rank_up(items): orders items by reported pIC50 in ascending numerical order. Answer by naming the labels in the order asked.
**Result** R, S, T, P, Q
(R: 3.55, S: 4.01, T: 4.26, P: 4.46, Q: 5.35)
